biological target: human IL-6 (human, UniProt P05231 30-212); assay: SPR (Biacore), supernatant antibody on Protein A chip, IL-6 flowed, 37 C
Sequence (P05231 30-212 limits assumed): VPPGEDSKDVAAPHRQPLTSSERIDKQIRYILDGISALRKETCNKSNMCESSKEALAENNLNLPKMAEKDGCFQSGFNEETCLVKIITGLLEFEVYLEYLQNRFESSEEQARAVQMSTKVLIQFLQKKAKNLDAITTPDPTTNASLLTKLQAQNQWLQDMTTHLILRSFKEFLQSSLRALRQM
Measured parameter: koff
Remember to quote the unit after the number.

For anti-IL-6 antibody, heavy chain S35Y, G66D / light chain M32L, M50D, N52S, M88Q (antibody, human IgG1, V domains shown, Human IgG1) VH: EVQLVESGGGLVQPGGSLRLSCAASGFTFSPFAMYWVRQAPGKGLEWVAKISPGGSWTYYSDTVTDRFTFSLDTSKSTAYLQMNSLRAEDTAVYYCARQLWGYYALDIWGQGTLVTVSS VL: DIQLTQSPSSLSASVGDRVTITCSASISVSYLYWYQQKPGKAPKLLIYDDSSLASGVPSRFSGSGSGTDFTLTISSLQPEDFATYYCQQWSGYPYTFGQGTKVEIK , what is its reported koff?
0.00404 s⁻¹

For anti-IL-6 antibody, heavy chain T63H, G66D / light chain M32L, M50D, N52S, M88Q (antibody, human IgG1, V domains shown, Human IgG1) VH: EVQLVESGGGLVQPGGSLRLSCAASGFTFSPFAMSWVRQAPGKGLEWVAKISPGGSWTYYSDHVTDRFTFSLDTSKSTAYLQMNSLRAEDTAVYYCARQLWGYYALDIWGQGTLVTVSS VL: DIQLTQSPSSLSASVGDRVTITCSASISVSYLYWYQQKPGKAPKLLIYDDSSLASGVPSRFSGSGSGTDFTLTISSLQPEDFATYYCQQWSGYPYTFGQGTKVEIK , what is its reported koff?
0.000481 s⁻¹

For anti-IL-6 antibody, heavy chain T65F, G66D / light chain M32L, M50D, N52S, M88Q (antibody, human IgG1, V domains shown, Human IgG1) VH: EVQLVESGGGLVQPGGSLRLSCAASGFTFSPFAMSWVRQAPGKGLEWVAKISPGGSWTYYSDTVFDRFTFSLDTSKSTAYLQMNSLRAEDTAVYYCARQLWGYYALDIWGQGTLVTVSS VL: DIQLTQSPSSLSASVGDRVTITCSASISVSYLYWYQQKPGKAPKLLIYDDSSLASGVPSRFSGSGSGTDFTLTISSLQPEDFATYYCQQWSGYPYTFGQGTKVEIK , what is its reported koff?
0.000391 s⁻¹
